// provenance: patent US12187723B2

Molecular target: human TLR9 (Homo sapiens, UniProt Q9NR96)
Sequence (Q9NR96 26-1032): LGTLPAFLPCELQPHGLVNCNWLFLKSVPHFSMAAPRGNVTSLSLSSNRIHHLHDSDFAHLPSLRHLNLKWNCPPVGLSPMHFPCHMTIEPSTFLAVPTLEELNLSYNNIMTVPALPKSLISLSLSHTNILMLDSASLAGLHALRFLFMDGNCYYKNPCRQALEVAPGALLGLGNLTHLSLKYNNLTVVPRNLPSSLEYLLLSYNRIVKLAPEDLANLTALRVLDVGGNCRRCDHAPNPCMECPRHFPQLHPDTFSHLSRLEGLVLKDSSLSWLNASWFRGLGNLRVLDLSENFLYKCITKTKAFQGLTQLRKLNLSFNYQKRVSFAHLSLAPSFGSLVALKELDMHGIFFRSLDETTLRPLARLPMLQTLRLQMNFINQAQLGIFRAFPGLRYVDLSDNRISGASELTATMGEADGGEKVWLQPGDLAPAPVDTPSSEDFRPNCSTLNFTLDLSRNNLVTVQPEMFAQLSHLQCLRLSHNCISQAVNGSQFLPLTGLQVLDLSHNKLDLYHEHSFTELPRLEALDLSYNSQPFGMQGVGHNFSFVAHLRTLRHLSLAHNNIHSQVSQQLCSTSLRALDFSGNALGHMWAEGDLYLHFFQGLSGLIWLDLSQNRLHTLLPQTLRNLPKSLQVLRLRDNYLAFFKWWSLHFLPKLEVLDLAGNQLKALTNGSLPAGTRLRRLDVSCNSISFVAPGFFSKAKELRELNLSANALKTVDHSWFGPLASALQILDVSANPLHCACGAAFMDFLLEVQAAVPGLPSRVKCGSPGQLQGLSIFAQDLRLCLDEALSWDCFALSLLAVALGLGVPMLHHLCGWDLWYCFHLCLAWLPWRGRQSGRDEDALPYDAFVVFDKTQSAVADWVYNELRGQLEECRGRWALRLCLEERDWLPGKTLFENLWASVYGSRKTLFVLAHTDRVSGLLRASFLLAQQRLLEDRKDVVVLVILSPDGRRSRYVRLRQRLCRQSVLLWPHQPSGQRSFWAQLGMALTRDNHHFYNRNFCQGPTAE
Test: TLR9 inhibition reporter assay (HEK-Blue SEAP)
Conditions: HEK-Blue cells overexpressing human TLR9, ODN2006 5 nM, 22 hour incubation
TEST READOUT: IC50 (µM)

> print(dat)
                                   molecule                                       tgt  test.readout  recorded.result
1  CCN[C@H]1CC[C@@H](n2c(=O)[nH]c3cc(-c4cc(C)c5ncnn5c4)c(C)cc32)CC1 [Example 21]  human TLR9 (Homo sapiens, UniProt Q9NR96)          IC50             7.06

P = COc1cc(-c2cc3[nH]c(=O)n([C@H]4CC[C@@H](NCC(C)C)CC4)c3cc2C)cn2ncnc12 [Example 61]
Q = COc1cc(-c2cc3[nH]c(=O)n(C4CCN(CC(C)C)CC4)c3cc2C(C)C)cn2ncnc12 [Example 164]
### Prompt Just tell me: smaller IC50 value, P or Q ? Your choice should be expressed through its label.
### Response P

###

Target: human TLR7 (Homo sapiens, UniProt Q9NYK1)
Sequence (Q9NYK1 27-1049): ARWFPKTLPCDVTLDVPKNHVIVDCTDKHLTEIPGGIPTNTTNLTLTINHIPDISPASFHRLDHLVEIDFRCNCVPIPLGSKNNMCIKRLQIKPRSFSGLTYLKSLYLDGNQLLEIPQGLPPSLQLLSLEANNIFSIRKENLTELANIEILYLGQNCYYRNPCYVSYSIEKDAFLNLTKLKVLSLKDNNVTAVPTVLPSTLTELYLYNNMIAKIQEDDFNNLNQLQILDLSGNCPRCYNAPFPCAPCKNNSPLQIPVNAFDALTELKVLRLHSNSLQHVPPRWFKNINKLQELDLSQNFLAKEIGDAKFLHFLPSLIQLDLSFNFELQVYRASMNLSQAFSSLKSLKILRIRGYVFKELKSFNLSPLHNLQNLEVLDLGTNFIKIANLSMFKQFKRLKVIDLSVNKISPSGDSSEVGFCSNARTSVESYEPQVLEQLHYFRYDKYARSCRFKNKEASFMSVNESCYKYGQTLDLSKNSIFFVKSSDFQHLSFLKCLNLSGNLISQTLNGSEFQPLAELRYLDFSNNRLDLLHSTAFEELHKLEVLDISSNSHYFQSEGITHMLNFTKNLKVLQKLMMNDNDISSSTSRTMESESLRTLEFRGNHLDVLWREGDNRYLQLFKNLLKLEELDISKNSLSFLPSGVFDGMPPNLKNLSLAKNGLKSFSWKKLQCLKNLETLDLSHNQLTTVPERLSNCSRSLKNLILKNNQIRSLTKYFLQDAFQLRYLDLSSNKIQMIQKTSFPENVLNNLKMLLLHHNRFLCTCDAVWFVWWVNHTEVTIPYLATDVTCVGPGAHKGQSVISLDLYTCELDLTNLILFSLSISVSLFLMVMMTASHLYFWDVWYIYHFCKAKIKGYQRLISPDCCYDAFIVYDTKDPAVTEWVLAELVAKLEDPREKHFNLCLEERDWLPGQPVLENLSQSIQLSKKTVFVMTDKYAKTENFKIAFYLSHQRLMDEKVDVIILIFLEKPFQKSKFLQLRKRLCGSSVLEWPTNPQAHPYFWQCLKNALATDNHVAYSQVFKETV
Assay: TLR7 inhibition reporter assay (HEK-Blue SEAP)
Conditions: HEK-Blue cells overexpressing human TLR7, gardiquimod 7.5 μM, 22 hour incubation
Experimental: TLR7/8/9 Inhibition Reporter Assays Briefly, cells are seeded into Greiner 384 well plates (15000 cells per well for TLR7, 20,000 for TLR8 and 25,000 for TLR9) and then treated with test compounds in DMSO to yield a final dose response concentration range of 0.05 nM-50 μM. […] The percent inhibition is determined as the % reduction in the HEK-Blue signal present in wells treated with agonist plus DMSO alone compared to wells treated with a known inhibitor.
TEST READOUT: IC50 (nM)

> print(dat)
                                   compound  test.readout  recorded.result
1  Cc1cc2c(cc1-c1cc(C)c3ncnn3c1)[nH]c(=O)n2[C@@H]1CCCN(CC2CCCC2)C1          IC50             18.5
2  Cc1cc2c(cc1-c1cc(C)c3ncnn3c1)[nH]c(=O)n2[C@@H]1CCCN(CC(C)C)C1          IC50             14.8
3  Cc1cc2c(cc1-c1cc(C)c3ncnn3c1)[nH]c(=O)n2[C@@H]1CCCNC1          IC50             18.1
4  CCc1cc2c(cc1-c1cc(OC)c3ncnn3c1)[nH]c(=O)n2[C@@H]1CCCN(CC(C)(C)C)C1          IC50             1.42

I = COc1c(C)c(-c2cc3[nH]c(=O)n(C4CCC(N5CCCOCC5)CC4)c3cc2C(C)C)cn2ncnc12 (single isomer, unassigned) [Example 261]
II = CCc1cc2c(cc1-c1cc(OC)c3ncnn3c1)[nH]c(=O)n2[C@@H]1CCCN(CC)C1
III = CCc1cc2c(cc1-c1cc(OC)c3ncnn3c1)[nH]c(=O)n2[C@@H]1CCCN(CC(C)C)C1
### Prompt # desc sort on IC50 across 3 compounds Give the labels in the order requested.
### Response I, II, III
(I: 15.5 nM, II: 4.56 nM, III: 1.07 nM)

###

Molecular target: UniProt:Q9NR96
Assay: TLR9 inhibition reporter assay (HEK-Blue SEAP)
Settings: HEK-Blue cells overexpressing human TLR9, ODN2006 5 nM, 22 hour incubation
pIC50: −log10 of the molar value.
TEST READOUT: pIC50

> print(dat)
                                   molecule  recorded.result
1  CCc1cc2c(cc1-c1cc(OC)c3ncnn3c1)[nH]c(=O)n2[C@H]1CC[C@@H](NC(C)C)CC1             4.78
2  Cc1cc2c(cc1-c1cc(C)c3ncnn3c1)[nH]c(=O)n2[C@@H]1CCCN(CC2CCOC2)C1 (stereo partly shown)             4.78
3  COc1cc(-c2cc3[nH]c(=O)n([C@H]4CC[C@@H](N(C)C5CCOCC5)CC4)c3cc2C)cn2ncnc12             5.10

I = COc1cc(-c2cc3[nH]c(=O)n(C4CCN(CC(=O)N(C)C)CC4)c3cc2C)cn2ncnc12
II = CCN[C@H]1CC[C@H](n2c(=O)[nH]c3cc(-c4cc(C)c5ncnn5c4)c(C)cc32)CC1
III = COc1c(C)c(-c2cc3[nH]c(=O)n(C4CCC(N5CC(F)C5)CC4)c3cc2C(C)C)cn2ncnc12 (single isomer, unassigned) [Example 264]
### Prompt Order the items by recorded pIC50; the first position goes to the largest value. Give the labels in the order specified.
### Response II, I, III

a = Cc1cc2c(cc1-c1cc(C)c3ncnn3c1)[nH]c(=O)n2[C@H]1CCCN(C(C)C)C1
b = COc1cc(-c2cc3[nH]c(=O)n(C4CCC(N5CCCC5)CC4)c3cc2C(C)C)cn2ncnc12 (stereo not shown) [Example 232]
### Prompt // which entry has the larger pIC50 value, a or b ? Indicate which entry you chose by stating its label.
### Response a

1 = COc1c(C)c(-c2cc3[nH]c(=O)n(C4CCC(N5CCC6(CC5)COC6)CC4)c3cc2C(C)C)cn2ncnc12 (single isomer, unassigned) [Example 268]
2 = COc1cc(-c2cc3[nH]c(=O)n([C@H]4CCCN(C(C)C)C4)c3cc2C(C)C)cn2ncnc12
3 = Cc1cc(-c2cc(C)c3ncnn3c2)cc2[nH]c(=O)n(C3CCNCC3)c12
4 = COc1cc(-c2cc3[nH]c(=O)n([C@@H]4CCCN(CC(C)(C)C)C4)c3cc2C(F)(F)F)cn2ncnc12
5 = Cc1cc2c(cc1-c1cc(C)c3ncnn3c1)[nH]c(=O)n2[C@H]1CC[C@@H](NC(C)C)CC1
### Prompt Endpoint returns the given molecules ordered by ascending pIC50. Sort and list the labels as requested.
### Response 4, 1, 5, 2, 3
(4: 4.47, 1: 4.76, 5: 5.33, 2: 5.71, 3: 5.99)

###

Molecular target: human TLR9 (Homo sapiens)
Assay: TLR9 inhibition reporter assay (HEK-Blue SEAP)
Settings: HEK-Blue cells overexpressing human TLR9, ODN2006 5 nM, 22 hour incubation
Text: TLR7/8/9 Inhibition Reporter Assays HEK-Blue™-cells (Invivogen) overexpressing human TLR7, TLR8 or TLR9 receptors were used for screening inhibitors of these receptors using an inducible SEAP (secreted embryonic alkaline phosphatase) reporter gene under the control of the IFN-β minimal promoter fused to five NF-κB and AP-1-binding sites. […]
TEST READOUT: IC50 (µM)

> print(dat)
                                   molecule  units.symbol  recorded.result
1  COc1cc(-c2cc3[nH]c(=O)n([C@@H]4CCCN(C(C)C)C4)c3cc2C(F)(F)F)cn2ncnc12            µM             9.94

A = CCc1cc2c(cc1-c1cc(OC)c3ncnn3c1)[nH]c(=O)n2[C@@H]1CCCN(C(=O)CN(C)C)C1
B = COC1CN(C2CCC(n3c(=O)[nH]c4cc(-c5cn6ncnc6c(C)c5C)c(C(C)C)cc43)CC2)C1 (single isomer, unassigned) [Example 277]
### Prompt Compare the recorded IC50 of A and B ; state which is larger. Select an item and report its label.
### Response A

###

Target: human TLR9 (Homo sapiens)
Test: TLR9 inhibition reporter assay (HEK-Blue SEAP)
Details: HEK-Blue cells overexpressing human TLR9, ODN2006 5 nM, 22 hour incubation
pIC50: −log10 of the molar value.
TEST READOUT: pIC50

> print(dat)
                                   molecule                        tgt  test.readout  recorded.result
1  Cc1c(-c2cc3[nH]c(=O)n(C4CCC(N5CCC(F)(F)CC5)CC4)c3cc2C(C)C)cn2ncnc2c1C (single isomer, unassigned) [Example 276]  human TLR9 (Homo sapiens)         pIC50             4.81
2  Cc1cc2c(cc1-c1cc(C)c3ncnn3c1)[nH]c(=O)n2[C@@H]1CCCN(CC#N)C1 [Example 96]  human TLR9 (Homo sapiens)         pIC50             5.06
3  COc1cc(-c2cc3[nH]c(=O)n(C4CCC(N5CCC(F)(F)CC5)CC4)c3cc2C(C)C)cn2ncnc12 (single isomer, unassigned) [Example 247]  human TLR9 (Homo sapiens)         pIC50             4.83
4  Cc1c(-c2cc3[nH]c(=O)n(C4CCC(N5CC6(COC6)C5)CC4)c3cc2C(C)C)cn2ncnc2c1C (single isomer, unassigned) [Example 298]  human TLR9 (Homo sapiens)         pIC50             5.42
5  COc1c(C)c(-c2cc3[nH]c(=O)n(C4CCC(N5CCCOCC5)CC4)c3cc2C(C)C)cn2ncnc12 (single isomer, unassigned) [Example 262]  human TLR9 (Homo sapiens)         pIC50             4.81

1 = COc1cc(-c2cc3[nH]c(=O)n(C4CCC(N5CC6(CCOCC6)C5)CC4)c3cc2C(C)C)cn2ncnc12 (single isomer, unassigned) [Example 236]
2 = CCc1cc2c(cc1-c1cc(OC)c3ncnn3c1)[nH]c(=O)n2[C@@H]1CCCN(CC2CCOCC2)C1 [Example 175]
### Prompt Looking at 1 and 2 , which one comes out lower in pIC50 terms? To answer, give the label that identifies your chosen option.
### Response 2
(2: 5.13, 1: 5.59)

I = Cc1cc(-c2ccc3c(c2)[nH]c(=O)n3C2CCN(C(C)C)CC2)cn2ncnc12 [Example 5]
II = COc1cc(-c2cc3[nH]c(=O)n(C4CCC(N5CCC(OC)C5)CC4)c3cc2C(C)C)cn2ncnc12 (stereo not drawn) [Example 285]
III = CCN1CCC(n2c(=O)[nH]c3cc(-c4cc(C)c5ncnn5c4)c(C)cc32)CC1 [Example 6]
### Prompt Rank by pIC50 (largest to smallest). The response must list the labels following the requested ordering.
### Response III, I, II
(III: 6.06, I: 5.56, II: 5.08)

A = Cc1cc(-c2cc(C)c3ncnn3c2)cc2[nH]c(=O)n(C3CCN(C(C)C)CC3)c12 [Example 107]
B = COc1cc(-c2cc3[nH]c(=O)n([C@H]4CCCN(CC5CCC5)C4)c3cc2C(C)C)cn2ncnc12 [Example 133]
### Prompt In terms of reported pIC50, does A or B have the smaller number? Reply with the label of the item you choose.
### Response B
